# key: entry, value: TGI
test system: A549; assay: Cytotoxicity against human A549 cells by SRB assay; assay type: functional

{"COMPOUND": "COC1=C(Br)[C@H](O)[C@@]2(C=C1Br)CC(C(=O)NCCCCNC(=O)C1=NO[C@]3(C=C(Br)C(=O)[C@H](Br)[C@@H]3O)C1)=NO2", "TGI": "> 10 µg/mL"}
{"COMPOUND": "COC1=C(Br)[C@H](O)[C@@]2(C=C1Br)CC(C(=O)NCCCCCNC(=O)C1=NO[C@]3(C=C(Br)C(=O)[C@H](Br)[C@@H]3O)C1)=NO2", "TGI": "8.7 µM"}
{"COMPOUND": "O=C(NCCCCCNC(=O)C1=NO[C@]2(C=C(Br)C(=O)[C@H](Br)[C@@H]2O)C1)C1=NO[C@]2(C=C(Br)C(=O)[C@H](Br)[C@@H]2O)C1", "TGI": "3.5 µM"}
{"COMPOUND": "COC1=C(Br)[C@H](O)[C@@]2(C=C1Br)CC(C(=O)NCCCCCNC(=O)C1=NO[C@]3(C=C(Br)C(=O)[C@@H]4O[C@@H]43)C1)=NO2 [APLYSINONE C]", "TGI": "> 10 µg/mL"}
{"COMPOUND": "COC1=C(Br)[C@H](O)[C@@]2(C=C1Br)CC(C(=O)NCCCCNC(=O)C1=NO[C@]3(C=C(Br)C(OC)=C(Br)[C@@H]3O)C1)=NO2 [AEROTHIONIN]", "TGI": "> 10 µg/mL"}
{"COMPOUND": "COC1=C(Br)[C@H](O)[C@@]2(C=C1Br)CC(C(=O)NCCCCCNC(=O)C1=NO[C@]3(C=C(Br)C(OC)(OC)[C@@H](Br)[C@@H]3O)C1)=NO2", "TGI": "> 10 µg/mL"}
{"COMPOUND": "COC1=C(Br)[C@H](O)[C@@]2(C=C1Br)CC(C(=O)NCCCCNC(=O)C1=NO[C@]3(C=C(Br)C(=O)[C@@H](Br)[C@@H]3O)C1)=NO2 [APLYSINONE D]", "TGI": "> 10 µg/mL"}
{"COMPOUND": "COc1cccc2c1C(=O)c1c(O)c3c(c(O)c1C2=O)C[C@@](O)(C(=O)CO)C[C@@H]3O[C@H]1C[C@H](N)[C@H](O)[C@H](C)O1 [DOXORUBICIN]", "TGI": "0.2 µM"}
{"COMPOUND": "COC1(OC)C(Br)=C[C@@]2(CC(C(=O)NCCCCCNC(=O)C3=NO[C@]4(C=C(Br)C(OC)(OC)[C@@H](Br)[C@@H]4O)C3)=NO2)[C@@H](O)[C@@H]1Br", "TGI": "> 10 µg/mL"}
{"COMPOUND": "COC1=C(Br)[C@H](O)[C@@]2(C=C1Br)CC(C(=O)NCCCCCNC(=O)C1=NO[C@]3(C=C(Br)C(OC)=C(Br)[C@@H]3O)C1)=NO2 [HOMOAEROTHIONIN]", "TGI": "> 10 µg/mL"}
{"COMPOUND": "O=C(NCCCCCNC(=O)C1=NO[C@]2(C=C(Br)C(=O)[C@@H](Br)[C@@H]2O)C1)C1=NO[C@]2(C=C(Br)C(=O)[C@@H](Br)[C@@H]2O)C1 [APLYSINONE B]", "TGI": "2.9 µM"}
{"COMPOUND": "COC1=C(Br)[C@H](O)[C@@]2(C=C1Br)CC(C(=O)NCCCCCNC(=O)C1=NO[C@]3(C=C(Br)C(=O)[C@@H](Br)[C@@H]3O)C1)=NO2 [APLYSINONE A]", "TGI": "7.1 µM"}

Cited source for all entries: ChEMBL document CHEMBL1143705
